Biological target: human TGR5 (h-TGR5) (Homo sapiens, UniProt Q8TDU6)
Construct: expressed in transfected cells
Test: TGR5/CRE-Luciferiase Assay (HEK 293 hTGR5/CRE-Luc cells)
Assay type: cell-based
Details: h-TGR5 CRE-Luc EC50, Table 1; read-out: CRE-Luc (EC50)
I'd appreciate it if you could supply EC50 values for the items below.

## Input For human TGR5 (h-TGR5) (Homo sapiens, UniProt Q8TDU6), provide EC50 of CC(C)(c1ccc(Cl)c(Cl)c1)c1cnc(SCc2c(F)cc(-c3nnn[nH]3)cc2F)n1-c1ccc(F)cc1 please.
## Output 100 to 1000 nM

## Input Another compound to check: CC(C)(c1ccc(Cl)c(Cl)c1)c1cnc(SCc2ccc(F)cc2Cl)n1-c1ccc(F)c(C(N)=O)c1
## Output 100 to 1000 nM

## Input Another compound to check: CC(C)(c1ccc(Cl)cc1F)c1cnc(SCc2c(F)cccc2Cl)n1-c1ccc(F)cc1
## Output 100 to 1000 nM

## Input Another compound to check: CC(C)(c1ccc(F)c(F)c1)c1cnc(SCc2ccc(F)c(C(=O)O)c2)n1-c1ccc(F)cc1
## Output 100 to 1000 nM

###

Molecular target: h-TGR5 (Homo sapiens, UniProt Q8TDU6)
Construct: expressed in transfected cells
Sequence (Q8TDU6 1-330): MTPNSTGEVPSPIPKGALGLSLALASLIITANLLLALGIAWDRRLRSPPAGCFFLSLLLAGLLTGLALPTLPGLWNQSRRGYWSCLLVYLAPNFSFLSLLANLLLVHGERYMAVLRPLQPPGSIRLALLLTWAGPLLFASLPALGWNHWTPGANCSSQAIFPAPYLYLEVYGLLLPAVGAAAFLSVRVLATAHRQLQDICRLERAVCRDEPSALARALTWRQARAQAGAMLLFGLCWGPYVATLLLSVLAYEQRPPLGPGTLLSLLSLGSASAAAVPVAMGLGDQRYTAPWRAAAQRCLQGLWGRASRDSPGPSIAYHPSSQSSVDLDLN
Assay: TGR5 cAMP Assay using Cisbio cAMP Dynamic2 htrf kit (hTGR5CRE-luc HEK 293 cells)
Assay type: cell-based
Settings: h-TGR5 cAMP EC50, Table 1; read-out: cAMP (EC50)
Outcome Measure: EC50

## Input Which value of EC50 has been reported for COc1cc(C(C)(C)c2cnc(SCc3c(F)cc(S(N)(=O)=O)cc3F)n2-c2ccc(F)cc2)ccc1Cl in the records?
## Output < 100 nM

## Input Another compound to check: CC(C)(c1ccc(Cl)c(Cl)c1)c1cnc(SCc2ccc(S(=O)(=O)O)cc2Cl)n1-c1ccc(F)cc1
## Output 100 to 1000 nM

## Input Another compound to check: COc1cc(C(C)(C)c2cnc(SCc3ccc(CCCNC(=N)N)c(C(=O)O)c3)n2-c2ccc(F)cc2)ccc1Cl
## Output 100 to 1000 nM

## Input Another compound to check: COc1cc(C(C)(C)c2cnc(SCc3ccc(S(=O)(=O)NC(=O)NN4CCCC4)cc3Cl)n2-c2ccc(F)c(C)c2)ccc1Cl
## Output 100 to 1000 nM

###

I'd appreciate it if you could supply pEC50 values for the items below.
Target: human TGR5 (h-TGR5) (Homo sapiens, UniProt Q8TDU6)
Construct: expressed in transfected cells
Sequence (Q8TDU6 1-330): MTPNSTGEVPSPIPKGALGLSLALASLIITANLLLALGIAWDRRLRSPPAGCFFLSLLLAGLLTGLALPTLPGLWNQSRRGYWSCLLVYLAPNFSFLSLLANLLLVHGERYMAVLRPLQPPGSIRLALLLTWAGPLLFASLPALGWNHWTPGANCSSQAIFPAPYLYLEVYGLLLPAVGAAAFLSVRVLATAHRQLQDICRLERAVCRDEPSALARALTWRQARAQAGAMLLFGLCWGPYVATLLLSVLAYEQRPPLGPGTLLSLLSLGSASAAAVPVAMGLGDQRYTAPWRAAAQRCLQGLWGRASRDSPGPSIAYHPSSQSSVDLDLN
Experiment: TGR5/CRE-Luciferiase Assay (HEK 293 hTGR5/CRE-Luc cells)
Format: cell-based
Settings: h-TGR5 CRE-Luc EC50, Table 1; read-out: CRE-Luc (EC50)
pEC50: −log10 of the molar value.

## Input Which value of pEC50 has been reported for CCCNC(=O)NS(=O)(=O)c1ccc(CSc2ncc(C(C)(C)c3ccc(Cl)c(OC)c3)n2-c2ccc(F)cc2)c(Cl)c1 in the records?
## Output > 7.00

## Input Another compound to check: COc1ccc(C(C)(C)c2cnc(SCc3c(F)cccc3C(=O)O)n2-c2ccc(F)cc2)cc1OC
## Output 6.00 to 7.00

## Input Another compound to check: CC(C)(c1ccc(Cl)c(Cl)c1)c1cnc(S(=O)(=O)N[C@H](CO)c2ccccc2)n1-c1ccc(F)cc1
## Output 5.00 to 6.00

## Input Another compound to check: CC(C)(O)c1ccc(C(C)(C)c2cnc(SCc3ccc(F)cc3Cl)n2-c2ccc(F)cc2)cc1Cl
## Output 6.00 to 7.00

###

I'd appreciate it if you could supply pEC50 values for the items below.
Target: human TGR5 (h-TGR5) (Homo sapiens, UniProt Q8TDU6)
Construct: expressed in transfected cells
Experiment: TGR5/CRE-Luciferiase Assay (HEK 293 hTGR5/CRE-Luc cells)
Format: cell-based
Details: h-TGR5 CRE-Luc EC50, Table 1; read-out: CRE-Luc (EC50)
pEC50: −log10 of the molar value.

## Input Which value of pEC50 has been reported for COc1ccc(C(C)(C)c2cnc(C(=O)Nc3c(F)cccc3Cl)n2-c2ccc(F)cc2)cc1OC in the records?
## Output 5.00 to 6.00

## Input Another compound to check: CC(C)(c1ccc(Cl)c(Cl)c1)c1cnc(SCc2cc(C(=O)O)ccc2Cl)n1-c1ccc(F)cc1
## Output 6.00 to 7.00

## Input Another compound to check: CC(C)(c1ccc(Cl)c(Cl)c1)c1cnc(S(=O)(=O)C(C)(C)c2c(F)cccc2Cl)n1-c1ccc(F)cc1
## Output 6.00 to 7.00

## Input Another compound to check: CC(C)(c1ccc(Cl)c(Cl)c1)c1cnc(S(=O)(=O)Cc2c(F)cccc2Cl)n1-c1ccc(F)cc1
## Output 6.00 to 7.00

## Input Another compound to check: CC(C)(c1ccc(Cl)c(Cl)c1)c1cnc(/C=C/c2c(F)cccc2Cl)n1-c1ccc(F)cc1
## Output 5.00 to 6.00

## Input Another compound to check: CC(C)(c1ccc(Cl)c(Cl)c1)c1cnc(S(=O)(=O)NCc2c(F)cccc2Cl)n1-c1ccc(F)cc1
## Output 6.00 to 7.00

## Input Another compound to check: COc1cc(C(C)(C)c2cnc(SCc3c(F)cc(C(=O)NO)cc3F)n2-c2ccc(F)cc2)ccc1Cl
## Output > 7.00

## Input Another compound to check: COc1ccc(C(C)(C)c2cnc(C(=O)Nc3ccc(Cl)c(Cl)c3)n2-c2ccc(F)cc2)cc1OC
## Output 5.00 to 6.00

###

Biological target: h-TGR5 (Homo sapiens)
Construct: expressed in transfected cells
Sequence (Q8TDU6 1-330): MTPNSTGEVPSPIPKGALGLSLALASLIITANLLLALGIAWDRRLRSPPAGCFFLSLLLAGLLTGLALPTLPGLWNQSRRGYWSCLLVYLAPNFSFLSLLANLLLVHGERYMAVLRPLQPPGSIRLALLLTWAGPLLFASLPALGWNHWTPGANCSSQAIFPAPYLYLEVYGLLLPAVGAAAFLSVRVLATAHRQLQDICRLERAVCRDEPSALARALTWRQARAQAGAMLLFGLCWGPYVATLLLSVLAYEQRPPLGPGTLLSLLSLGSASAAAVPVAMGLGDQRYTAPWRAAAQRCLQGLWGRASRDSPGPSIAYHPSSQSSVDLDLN
Experiment: TGR5 cAMP Assay using Cisbio cAMP Dynamic2 htrf kit (hTGR5CRE-luc HEK 293 cells)
Assay type: cell-based
Conditions: h-TGR5 cAMP EC50, Table 1; read-out: cAMP (EC50)
I'd appreciate it if you could supply EC50 values for the items below.

## Input Which value of EC50 has been reported for CC(C)(c1ccc(Cl)c(Cl)c1)c1cnc(CCc2c(F)cccc2Cl)n1-c1ccc(F)cc1 in the records?
## Output 100 to 1000 nM

## Input Another compound to check: COc1cc(-n2c(C(C)(C)c3ccc(Cl)c(Cl)c3)cnc2SCC2CCN(c3nnn[nH]3)CC2)ccc1F
## Output < 100 nM

## Input Another compound to check: CC(C)(c1ccc(Cl)c(Cl)c1)c1cnc(CCc2ccc(S(N)(=O)=O)cc2Cl)n1-c1ccc(F)cc1
## Output 1000 to 10000 nM

## Input Another compound to check: COc1ccc(C(C)(C)c2cnc(SCc3cc(F)ccc3Cl)n2-c2ccc(F)cc2)cc1Cl
## Output 100 to 1000 nM

## Input Another compound to check: CC(C)(c1cccc(S(C)(=O)=O)c1)c1cnc(SCc2c(F)cccc2Cl)n1-c1ccc(F)cc1
## Output < 100 nM

## Input Another compound to check: CC(C)(c1ccc(Cl)c(Cl)c1)c1cnc(S(=O)(=O)NCc2ccc(F)cc2Cl)n1-c1ccc(F)cc1
## Output 100 to 1000 nM

## Input Another compound to check: COc1ccc(C(C)(C)c2cnc(SCc3cc(F)ccc3Cl)n2-c2ccc(F)cc2)cc1OC
## Output < 100 nM

## Input Another compound to check: COc1ccc(C(C)(C)c2cnc(SCc3c(F)cccc3C(F)(F)F)n2-c2ccc(F)cc2)cc1OC
## Output < 100 nM
